- SUBJECT OF TEST: human IL-13 R130Q variant (R110Q of the mature chain) (human) (UniProt P35225)
- ASSAY SUMMARY: Biacore SPR, mAb from HEK293
Field: Kd. Provide a value for each of the binders that follow.
Lab book: enter the figure in nM, no units written.

Using the record for mAb Lc-2B03 + Hc2 T31S, M34V, M100L (antibody, human IgG1, V domains shown) VH: QVTLKESGPVLVKPTETLTLTCTVSGFSLSSYGVGVGWIRQPPGKALEWLAHIWWDDVKRYNPALKSRLTISKDTSKSQVVLTMTNMDPVDTATYYCARLGSDYDVWFDYWGQGTLVTVSS VL: EIVLTQSPATLSLSPGERATLSCRASKSISKYLAWYQQKPGQAPRLLIYSGSTLQSGIPARFSGSGSGTDFTLTISSLEPEDFAVYYCQQHDYPYTFGQGTKLEIKR , report its Kd.
0.0037

Same lookup for mAb Lc-2B03 + Hc2 M34Q, M100L (antibody, human IgG1, V domains shown) VH: QVTLKESGPVLVKPTETLTLTCTVSGFSLSTYGQGVGWIRQPPGKALEWLAHIWWDDVKRYNPALKSRLTISKDTSKSQVVLTMTNMDPVDTATYYCARLGSDYDVWFDYWGQGTLVTVSS VL: EIVLTQSPATLSLSPGERATLSCRASKSISKYLAWYQQKPGQAPRLLIYSGSTLQSGIPARFSGSGSGTDFTLTISSLEPEDFAVYYCQQHDYPYTFGQGTKLEIKR , please.
0.0243

Origin of the recorded values: patent US20100111959A1
